# STUDY_TARGET: Paired box protein Pax-8 (Homo sapiens, UniProt Q06710)
# Sequence (Q06710 whole entry): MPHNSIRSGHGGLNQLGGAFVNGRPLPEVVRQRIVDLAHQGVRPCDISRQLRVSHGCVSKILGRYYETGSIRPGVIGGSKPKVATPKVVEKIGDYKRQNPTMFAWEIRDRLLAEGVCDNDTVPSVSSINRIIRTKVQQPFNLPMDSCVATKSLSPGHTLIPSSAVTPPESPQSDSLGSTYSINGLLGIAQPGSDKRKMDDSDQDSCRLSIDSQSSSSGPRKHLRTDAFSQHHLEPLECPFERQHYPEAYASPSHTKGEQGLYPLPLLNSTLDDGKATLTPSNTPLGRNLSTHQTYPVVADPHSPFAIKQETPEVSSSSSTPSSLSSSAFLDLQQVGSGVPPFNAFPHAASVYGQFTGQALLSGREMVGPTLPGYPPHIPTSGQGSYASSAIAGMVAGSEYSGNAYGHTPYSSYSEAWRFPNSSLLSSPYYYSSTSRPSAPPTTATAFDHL
# ASSAY_NAME: PAX8 transcriptional activity inhibition in RMG-I – RMG-I cells, luciferase, cherry-pick, dose response (AID 687027);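 also: luciferase reporter driven by Pax8 target thyroperoxidase promoter measured by SteadyGlo luminescence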
# Type: functional, cell-based
Activity calls are given as the source filed them. No rule for the calls is given here.
Hi there, I'd appreciate the recorded AC50 for every entry that follows.

CHEMICAL_STRUCTURE	STUDY_TARGET	MEASURED_PARAMETER	ENDPOINT_RESULT
Cc1ccc(S(=O)(=O)Nc2ccc3c(c2)C(=O)N([C@@H](C)CO)C[C@H](C)[C@@H](CN(C)Cc2ccc(C(F)(F)F)cc2)OCCCC[C@@H](C)O3)cc1	Paired box protein Pax-8 (Homo sapiens, UniProt Q06710)	AC50	5.99 µM (active)
Cc1ccc(S(=O)(=O)Nc2ccc3c(c2)CC(=O)N([C@H](C)CO)C[C@H](C)[C@@H](CN(C)Cc2ccc(Cl)c(Cl)c2)O3)cc1	Paired box protein Pax-8 (Homo sapiens, UniProt Q06710)	AC50	13.3 µM (active)
COc1ccc2c3c(n(C)c2c1)[C@H](CO)NCC31CCN(Cc2cc(-c3ccccc3)on2)CC1	Paired box protein Pax-8 (Homo sapiens, UniProt Q06710)	AC50	7.96 µM (active)

Please give AC50, item by item, for the list that follows.
1. C[C@H]1CCCCO[C@@H](CN(C)Cc2ccc(C(F)(F)F)cc2)[C@@H](C)CN([C@@H](C)CO)C(=O)c2cc(NC(=O)c3ccccc3)ccc2O1
2. O=C1CN(S(=O)(=O)Cc2ccccc2)C[C@@H]2[C@@H](c3ccc(C#CCC4CCCC4)cc3)[C@@H](CO)N12
3. O=C(NCc1cc(C(F)(F)F)ccc1Cl)c1cccc2c1C(=O)c1ccc(N3CCC(N4CCCCC4)CC3)cc1S2(=O)=O
4. CO[C@H]1[C@@H](O)[C@@H](O)O[C@@H](O[C@H]2CC[C@@]3(C)[C@H](CC[C@@H]4[C@@H]3[C@H](O)C[C@]3(C)[C@@H](C5=CC(=O)OC5)CC[C@]43O)C2)[C@@H]1O
5. CN(CCc1cn[nH]c1)Cc1nc(C(c2ccccc2)c2ccccc2)no1
6. O=S(=O)(Nc1cccc(-c2cn3cccnc3n2)c1)c1ccc(Cl)cc1
7. C[C@H]1CCCCO[C@@H](CN(C)Cc2ccc(C(F)(F)F)cc2)[C@@H](C)CN([C@@H](C)CO)C(=O)c2cc(NS(=O)(=O)c3ccccc3)ccc2O1
8. C=C(C(=O)c1ccccc1)C(C(=C)C(=O)c1ccccc1)c1ccc(OC)cc1

OUTPUT:
1: 7.47 µM (active); 2: 4.58 µM (active); 3: 11.7 µM (active); 4: 0.809 µM (active); 5: 65 µM (active); 6: 43.5 µM (active); 7: 7.08 µM (active); 8: 2.66 µM (active)

INPUT: Give the reported AC50 for CC(C)=CCC/C(C)=C/CNC(=O)C[C@H]1C[C@H](C(=O)N2CCOCC2)[C@@]2(C)c3[nH]c4ccc(Cl)cc4c3CCN2C1=O (system: Paired box protein Pax-8 (Homo sapiens, UniProt Q06710)).
OUTPUT: 11.8 µM (active)

All figures here come from ChEMBL document CHEMBL1201862.
